B1: CDKN1A (parent)
chain: RRQTSMTDFYHSKRRLIFSKRKP

Variants of: B1
PROTOCOL NOTES: protein stability index of a GFP-peptide fusion (GPS, HEK-293T) (PSI 1-6); higher = more stable;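 note: lentivirally expressed fusions sorted by FACS into six bins by GFP to DsRed ratio, PSI derived from sequencing read proportions per bin multiplied by bin number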
APPLIED CONDITIONS: c terminus: native
Consider the following variants; for each one, report its protein stability index.
Lab note: write the figure by itself, no unit.

QUERY: Supply recorded protein stability index for "D8M" here.
RESULT: 2.65

QUERY: Supply recorded protein stability index for "Q3S" here.
RESULT: 2.27

QUERY: Supply recorded protein stability index for "Y10N" here.
RESULT: 1.72

QUERY: Supply recorded protein stability index for "H11L" here.
RESULT: 3.32

QUERY: Supply recorded protein stability index for "R21P" here.
RESULT: 2.73

QUERY: Supply recorded protein stability index for "D8S" here.
RESULT: 2.95

QUERY: Supply recorded protein stability index for "H11A" here.
RESULT: 2.49

QUERY: Supply recorded protein stability index for "F9D" here.
RESULT: 2.72

QUERY: Supply recorded protein stability index for "K22R" here.
RESULT: 4.35

QUERY: Supply recorded protein stability index for "T7Q" here.
RESULT: 2.1

QUERY: Supply recorded protein stability index for "R21Y" here.
RESULT: 2.97

QUERY: Supply recorded protein stability index for "R21V" here.
RESULT: 3.09

QUERY: Supply recorded protein stability index for "P23M" here.
RESULT: 2.46

QUERY: Supply recorded protein stability index for "M6L" here.
RESULT: 2.93

QUERY: Supply recorded protein stability index for "R21N" here.
RESULT: 2.79

QUERY: Supply recorded protein stability index for "S12C" here.
RESULT: 2.98

QUERY: Supply recorded protein stability index for "T4Y" here.
RESULT: 2.22

QUERY: Supply recorded protein stability index for "S5Y" here.
RESULT: 2.19

QUERY: Supply recorded protein stability index for "S19F" here.
RESULT: 2.44

QUERY: Supply recorded protein stability index for "Q3R" here.
RESULT: 2.49

QUERY: Supply recorded protein stability index for "L16S" here.
RESULT: 2.86

QUERY: Supply recorded protein stability index for "T7H" here.
RESULT: 2.4

Source of measurements: the supplement of paper PMC10567573
